This collection of values is drawn from ChEMBL document CHEMBL1201862.

- System: RPMI-8226
- TEST METHOD NOTES: NCI tumour cell line growth inhibition, 48 h
The source made the active and inactive calls. Cut-off read from the data, not from the text of the source: active = GI50 up to about 1.1 µM and inactive = higher.
Outcome codes: 1 (yes) for active, 0 (no) for inactive

- Cc1cn(CCCCC2=NCCCN2)c(=O)[nH]c1=O: 0 (no)
- Clc1ccc(Cc2nc3cc(Cl)c(Cl)cc3n2CC2CCCN3CCCCC23)cc1Cl (stereo unspecified): 0 (no)
- N#Cc1ccc([N+](=O)[O-])cc1NC(N)=S: 0 (no)
- CC(=O)Oc1c2oc3cc(O)c(O)cc3c2c(OC(C)=O)c2oc3cc(O)c(O)cc3c12 [POLYOZELLIN]: 0 (no)
- C=C1C[C@@H]2CC[C@@]34CC5O[C@H]6C(O[C@H]7CC[C@H](CC(=O)O[C@@H]8[C@@H](C)[C@@H]9O[C@@H]%10C[C@]%11(C[C@@H]%12O[C@]%13(C[C@H](C)[C@@H]%14O[C@@H]%15CC(C(COC(C)=O)OC(C)=O)O[C@@H]%15C[C@@H]%14O%13)C[C@H](C)[C@@H]%12O%11)O[C@@H]%10C[C@@H]9O[C@H]8CC8O[C@@H](CC[C@@H]1O2)C[C@@H](C)C8(O)CO)O[C@@H]7[C@@H]6O3)[C@H]5O4 (stereo partly specified): 1 (yes)
- Cc1ccc(/C=N/n2c(Cc3ccccc3)n[nH]c2=O)cc1: 0 (no)
- O=C(CN1CCOCC1)NC1=Nc2ncccc2C(=O)NN1: 0 (no)
- C/C(=N/NC(=S)Nc1ccccc1Cl)c1ccccn1: 1 (yes)
- COc1ccc(C2C(Cl)C(=O)N2n2cnc3ccccc3c2=O)cc1OC (stereo unspecified): 0 (no)
- O=C(Nc1ccccc1)c1cc(S(=O)(=O)NC2=Nc3ccc(Cl)cc3C(c3ccccc3)N2)c(SSc2cc(Cl)c(C(=O)Nc3ccccc3)cc2S(=O)(=O)NC2=Nc3ccc(Cl)cc3C(c3ccccc3)N2)cc1Cl (stereo unspecified): 0 (no)
- O=NNc1cnc(O)nc1O: 0 (no)
- COC(=O)C1CCC(=O)N1C(c1ccc(OC)cc1)c1ccc2c(c1)OCO2 (stereo unspecified): 0 (no)
- c1ccc(C2N=C(c3ccccn3)C(c3ccccn3)=NC2c2ccccc2)cc1 (stereo unspecified): 0 (no)
- Nc1nc(Cl)c(N)c(NCC2(CO)CCCC2)n1: 0 (no)
- COCOc1ccc(OC)cc1: 0 (no)
- CCN(CC)C1Oc2cc3c(cc2C(c2ccc(OC)cc2)C1C)OCO3 (stereo unspecified): 0 (no)
- N/C(=N/O)N/N=C\c1cc(Cl)cc(Cl)c1O: 0 (no)
- O=c1n(Cc2ccccc2)c2ccccc2n1CC1CS1 (stereo unspecified): 0 (no)
- N#CCCN(CCC#N)c1ccc(C(=N/c2ccc(Cl)cc2)/N=N/c2ccccc2)cc1: 0 (no)
- CN(CCCN=C=S)CCCN1c2ccccc2CCc2ccccc21: 0 (no)
- CC(=O)OC1COC(N2C(=O)/C(=N\Nc3ccc([N+](=O)[O-])cc3)c3cc(Br)c([N+](=O)[O-])cc32)C(OC(C)=O)C1OC(C)=O (stereo unspecified): 0 (no)

---

- System: RXF 393
- TEST METHOD NOTES: NCI tumour cell line growth inhibition, 48 h
Calls of active or inactive are those of the source. Cut-off read from the data, not from the text of the source: active = GI50 up to about 1.1 µM and inactive = higher.
MEASUREMENT NAME: GI50

• Oc1ccc(I)c2cccnc12 = 6.82 µM (inactive)
• Nc1ncn(C/C=C/c2ccccc2)c2ncnc1-2 = > 100 µM (inactive)
• COc1ccc2nc3cc([N+](=O)[O-])ccc3c(Nc3ccc(S(=O)(=O)Nc4ncccn4)cc3)c2c1 = > 100 µM (inactive)
• Fc1ccccc1C1SCC2=Nc3ccccc3CN21 (stereo unspecified) = > 100 µM (inactive)
• Cc1n[nH]c(=O)n1N=C(c1ccccc1)c1ccccc1 = 1.26 µM (inactive)
• O=c1c(-c2ccc(O)cc2)coc2cc(OC3OC(CO)C(O)C(O)C3O)cc(O)c12 (stereo unspecified) = 40 µM (inactive)
• Nc1c(-c2ccccc2[N+](=O)[O-])nc2ccccn12 = > 100 µM (inactive)
• CC(=O)OCC1OC(NC(=S)Nn2c(=O)[nH]c3ccccc3c2=O)C(OC(C)=O)C(OC(C)=O)C1OC(C)=O (stereo unspecified) = > 100 µM (inactive)
• N=C(N)SCCN1CCCCC1 = 16.1 µM (inactive)
• CN1CCN(CN2C(=O)C3C4C=CC(C3C2=O)C2C3C(=O)N(CN5CCN(C)CC5)C(=O)C3C42)CC1 (stereo unspecified) = 22.9 µM (inactive)
• CC1(C)OCC=CCO1 = > 100 µM (inactive)

---

- System: SK-OV-3
- TEST METHOD NOTES: NCI tumour cell line growth inhibition, 48 h
Calls of active or inactive are those of the source. Rule as the data show it: active = GI50 up to about 1.1 µM and inactive = higher.
MEASUREMENT NAME: GI50

• CN(N=O)C(=O)N(N)CCCCC(NC(=O)OCc1ccccc1)C(=O)OCc1ccccc1 (stereo unspecified) = > 100 µM (inactive)
• COc1cc(/C=C2\C[C@H]3[C@@H]4CCc5cc(O)ccc5[C@H]4CC[C@]3(C)C2=O)cc(OC)c1OC = 21.2 µM (inactive)
• Cn1c2ccccc2c2c3c(c4c5ccccc5n(C)c4c21)C(=O)c1ccccc1C3=O = 48.9 µM (inactive)
• c1ncn(C23C4C5C6C4C2C6C53)n1 (stereo unspecified) = > 100 µM (inactive)
• COc1ccc2n[se]nc2c1 = 46.3 µM (inactive)
• Nc1nc(Cl)c(N)c(NCC2(CO)CCCC2)n1 = 10.4 µM (inactive)
• COc1c(Br)cc2ccccc2c1-c1c(OC)c(Br)cc2ccccc12 = > 100 µM (inactive)
• O=C(O)CN(c1ccccc1)S(=O)(=O)c1ccccc1[N+](=O)[O-] = > 100 µM (inactive)
• CCOC(=O)N(C)CCC1CC=CC(=O)C1c1cccc(OC)c1OC (stereo unspecified) = 37.4 µM (inactive)
• O=c1n(Cc2ccccc2)c2ccccc2n1CC1CS1 (stereo unspecified) = > 100 µM (inactive)
• C[N+](C)([O-])CCC=C1c2ccccc2CCc2ccccc21 = 37.8 µM (inactive)

---

- System: PC-3
- TEST METHOD NOTES: NCI tumour cell line growth inhibition, 48 h
Activity calls are given as the source filed them. No stated cut-off is given here; in the data, active = GI50 up to about 1.1 µM and inactive = higher.
Outcomes: active, inactive

- COC1=CC(=O)c2c(cc(COP(=O)(N(C)CCBr)N(C)CCBr)n2C)C1=O: inactive
- O=C1CC[C@@]2(O)[C@H]3Cc4ccc(-c5cccc(O)c5)c5c4[C@@]2(CCN3CC2CC2)[C@H]1O5: inactive
- COc1ccc2c3c([nH]c2c1)-c1nc2ccccc2c(=O)n1CC3: inactive
- COc1ccc(C)cc1N1C(=O)C2ON(Cc3ccc(CC(N)=O)cc3)C(c3c4ccccc4c(Cl)c4ccccc34)C2C1=O (stereo not drawn): inactive
- N=C(N)SCCN1CCCCC1: inactive
- C=C1CC2CC[C@@]34C[C@H]5O[C@@H]6C(O[C@H]7CC[C@H](CC(=O)OC8[C@H](C)C9OC%10C[C@]%11(C[C@@H]%12O[C@]%13(C[C@H](C)[C@@H]%14O[C@H]([C@H](O)C[C@H](O)CO)C[C@@H]%14O%13)C[C@H](C)[C@@H]%12O%11)OC%10CC9O[C@H]8C[C@H]8O[C@H](CC[C@@H]1O2)C[C@@H](C)C8=C)O[C@H]7[C@@H]6O3)[C@@H]5O4 (stereo partly drawn): active
- C#CCOC(=O)C(N)CCCNC(=N)N (stereo not drawn): inactive
- O=c1c2cc([N+](=O)[O-])ccc2nc2n1CCCCC2: inactive

---

- System: A549
- TEST METHOD NOTES: NCI tumour cell line growth inhibition, 48 h
Activity calls are given as the source filed them. Cut-off read from the data, not from the text of the source: active = GI50 up to about 1.1 µM and inactive = higher.
MEASUREMENT NAME: GI50

- Cc1ccc(S(=O)(=O)CC2CCCn3c2c(C#N)c2ccccc23)cc1 (centres undefined): > 100 µM (inactive)
- CCN(CC)c1ccc2c(c1)Oc1ccc(N(CC)CC)cc1C21Oc2ccccc2-c2c1c1ccccc1n2CC (centres undefined): 3.18 µM (inactive)
- O=S(=O)(c1ccccc1)n1c2ccc(Br)cc2c2nc3ccccc3nc21: > 100 µM (inactive)
- C(=C\C(SCc1ccccc1)SCc1ccccc1)/c1ccccc1: > 10 µM (inactive)
- N#Cc1c(C#N)c(-c2ccco2)n(/N=C/c2ccco2)c1N: 47.5 µM (inactive)
- N/C(=N\O)N/N=C/c1ccc2c(c1)OCCO2: 4.7 µM (inactive)
- CC(=O)OC(C)(C)[C@H]1O[C@]23O[C@]1(C)C[C@@H](C)[C@@H]2[C@@]1(C)CC[C@@]24C[C@@]25CC[C@H](O[C@@H]2OC[C@@H](O)[C@H](O)[C@H]2O)C(C)(C)[C@@H]5CC[C@H]4[C@]1(C)[C@H]3O: 6.41 µM (inactive)
- c1nncn1C12C3C4C5C3C1C5C42 (centres undefined): > 100 µM (inactive)
- COC(=O)/C(C#N)=C(\N)c1c(C)c2ccccc2oc1=N: > 100 µM (inactive)
